B1: HDV Ribozyme (parent)
chain: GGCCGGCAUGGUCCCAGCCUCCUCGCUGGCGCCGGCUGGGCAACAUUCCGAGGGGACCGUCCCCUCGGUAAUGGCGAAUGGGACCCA

variants of: B1; experiment: self-cleavage, relative activity (ratio to wild type); higher = more cleavage; co-transcriptional
I'd appreciate it if you could supply self-cleavage values for the items below.
# print the numeric value only

The reported self-cleavage of the variant U12A C19U was 0.0831

The reported self-cleavage of the variant G25C C36U was 0.0978

The reported self-cleavage of the variant G17U G40U was 0.381

The reported self-cleavage of the variant U12C G59A was 0.185

The reported self-cleavage of the variant C49G G68A was 0.789

The reported self-cleavage of the variant A8G C85G was 0.895

The reported self-cleavage of the variant C15G U23A was 0.68

The reported self-cleavage of the variant G25U G81U was 0.138

The reported self-cleavage of the variant G55C C62G was 1.06

The reported self-cleavage of the variant C24U A45G was 0.373

The reported self-cleavage of the variant C36U G59C was 0.923

The reported self-cleavage of the variant G40U C58A was 0.67

The reported self-cleavage of the variant A78U G82C was 0.0302

The reported self-cleavage of the variant G10A G31A was 0.203

The reported self-cleavage of the variant C15A G29A was 0.117

The reported self-cleavage of the variant U12A C18G was 0.0405

The reported self-cleavage of the variant U27C G35U was 0.302

The reported self-cleavage of the variant A42G C44A was 0.536

The reported self-cleavage of the variant U69A G74U was 0.665

The reported self-cleavage of the variant U27G C49A was 0.886

The reported self-cleavage of the variant G76C A87U was 1.1

The reported self-cleavage of the variant G2U C85G was 0.0966

The reported self-cleavage of the variant C3G U12C was 0

The reported self-cleavage of the variant C85G C86A was 0.763

The reported self-cleavage of the variant C22A C63U was 0.157

The reported self-cleavage of the variant G6U U72C was 0

The reported self-cleavage of the variant A8G C62G was 0.489

The reported self-cleavage of the variant G5C G50U was 0.0361

The reported self-cleavage of the variant C41A C44G was 0.323

The reported self-cleavage of the variant C41G G54U was 0.739
